target: EGFR L858R/T790M/C797S (Homo sapiens, UniProt P00533, C797S/L858R/T790M); assay: Biochemical EGFR kinase assay (Lance Ultra TR-FRET), triple mutant L858R/T790M/C797S; details: Km ATP; read-out: IC50 L858R/T790M/C797S (nM) Km ATP
Sequence (P00533 25-1210 T790M/C797S/L858R): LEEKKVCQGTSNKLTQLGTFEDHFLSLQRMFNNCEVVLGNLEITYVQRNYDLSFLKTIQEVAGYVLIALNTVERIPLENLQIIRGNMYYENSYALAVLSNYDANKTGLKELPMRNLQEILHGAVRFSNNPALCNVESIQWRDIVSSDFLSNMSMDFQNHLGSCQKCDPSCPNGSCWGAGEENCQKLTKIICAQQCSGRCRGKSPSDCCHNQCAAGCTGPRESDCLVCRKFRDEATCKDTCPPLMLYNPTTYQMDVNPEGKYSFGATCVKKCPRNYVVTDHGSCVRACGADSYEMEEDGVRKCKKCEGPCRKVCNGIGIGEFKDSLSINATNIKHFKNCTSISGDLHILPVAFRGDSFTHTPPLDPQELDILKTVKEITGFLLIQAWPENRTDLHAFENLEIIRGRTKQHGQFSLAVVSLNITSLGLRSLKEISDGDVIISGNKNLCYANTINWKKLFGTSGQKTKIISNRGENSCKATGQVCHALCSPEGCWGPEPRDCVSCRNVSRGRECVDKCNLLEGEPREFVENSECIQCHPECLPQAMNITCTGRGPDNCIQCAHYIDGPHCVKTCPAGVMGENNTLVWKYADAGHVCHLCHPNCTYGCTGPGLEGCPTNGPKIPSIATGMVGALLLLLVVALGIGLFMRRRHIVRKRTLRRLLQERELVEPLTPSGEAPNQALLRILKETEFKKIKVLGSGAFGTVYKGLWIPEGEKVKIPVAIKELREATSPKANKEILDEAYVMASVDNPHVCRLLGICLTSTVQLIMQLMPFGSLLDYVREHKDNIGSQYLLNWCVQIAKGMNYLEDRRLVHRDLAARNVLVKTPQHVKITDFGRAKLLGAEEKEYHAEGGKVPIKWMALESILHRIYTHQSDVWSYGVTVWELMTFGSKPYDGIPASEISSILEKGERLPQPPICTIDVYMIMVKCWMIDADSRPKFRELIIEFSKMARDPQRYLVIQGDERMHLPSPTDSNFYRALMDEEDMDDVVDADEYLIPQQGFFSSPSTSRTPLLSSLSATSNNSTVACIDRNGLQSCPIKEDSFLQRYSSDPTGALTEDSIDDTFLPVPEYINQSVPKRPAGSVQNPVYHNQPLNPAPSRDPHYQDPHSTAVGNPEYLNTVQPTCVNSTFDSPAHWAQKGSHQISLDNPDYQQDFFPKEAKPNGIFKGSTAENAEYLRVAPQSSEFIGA
Grouping key: IC50. Bins: bottom bin (below 0.3 nM), middle bin (0.3 nM to below 0.7 nM), top bin (0.7 nM or more)

Known results for compounds:
Compound: O=S(=O)(C1CC1)n1cc(-c2nccc(Nc3cc(N[C@H]4CC[C@@H](CN5CCC5)CC4)c(-c4ccn(CC(F)F)n4)cn3)n2)cn1
Test system: EGFR L858R/T790M/C797S (Homo sapiens, UniProt P00533, C797S/L858R/T790M)
Qualitative label: bottom bin

Compound: Cn1nc(-c2cnc(Nc3ccnc(-c4cnn(S(=O)(=O)C5CC5)c4)n3)cc2N[C@H]2CC[C@@H](NCCF)CC2)cc1C(F)(F)F
Test system: EGFR L858R/T790M/C797S (Homo sapiens, UniProt P00533, C797S/L858R/T790M)
Qualitative label: bottom bin

Compound: Cn1ccc(-c2cnc(Nc3ccnc(-c4cnn(S(=O)(=O)C5CC5)c4)n3)cc2N[C@H]2CC[C@@H](C(C)(C)O)CC2)n1
Test system: EGFR L858R/T790M/C797S (Homo sapiens, UniProt P00533, C797S/L858R/T790M)
Qualitative label: middle bin

Compound: CN(C)C[C@H]1CC[C@@H](Nc2cc(Nc3ccnc(-c4cnn(S(=O)(=O)C5CC5)c4)n3)ncc2-c2cc(C(C)(C)O)n(C)n2)CC1
Test system: EGFR L858R/T790M/C797S (Homo sapiens, UniProt P00533, C797S/L858R/T790M)
Qualitative label: bottom bin

Compound: Cn1nc(-c2cnc(Nc3ccnc(-c4cnn(S(=O)(=O)C5CC5)c4)n3)cc2N[C@H]2CC[C@@H](CN3CCC3)CC2)cc1C(F)(F)F
Test system: EGFR L858R/T790M/C797S (Homo sapiens, UniProt P00533, C797S/L858R/T790M)
Qualitative label: middle bin

Compound: C[C@]1(O)CC[C@@H](Nc2cc(Nc3ccnc(-c4cnn(S(=O)(=O)C5CC5)c4)n3)ncc2-n2ccc(C(F)F)n2)CC1
Test system: EGFR L858R/T790M/C797S (Homo sapiens, UniProt P00533, C797S/L858R/T790M)
Qualitative label: bottom bin

Compound: O=S(=O)(C1CC1)n1cc(-c2nccc(Nc3cc(NC4CCC(F)(CO)CC4)c(-c4ccn(C(F)F)n4)cn3)n2)cn1 (stereo not shown)
Test system: EGFR L858R/T790M/C797S (Homo sapiens, UniProt P00533, C797S/L858R/T790M)
Qualitative label: middle bin

Compound: O=S(=O)(C1CC1)n1cc(-c2nccc(Nc3cc(NC[C@H]4CC[C@H](CO)CC4)c(-c4ccn(C(F)F)n4)cn3)n2)cn1
Test system: EGFR L858R/T790M/C797S (Homo sapiens, UniProt P00533, C797S/L858R/T790M)
Qualitative label: middle bin

Prompt: Determine which band this compound sits in: `CN(C)S(=O)(=O)n1ccc(-c2nccc(Nc3cc(N[C@H]4CC[C@@](C)(O)CC4)c(-c4ccn(C(F)F)n4)cn3)n2)c1`
Completion: top bin

Prompt: Determine which band this compound sits in: O=S(=O)(C1CC1)n1cc(-c2nccc(Nc3cc(NC4CC5(CC(O)C5)C4)c(-c4ccn(C(F)F)n4)cn3)n2)cn1 (stereo not shown)
Completion: middle bin
